Assay: Pharmacokinetics in beagles, single-dose regimen of TRQI (i.v.) or TRQC (oral), plasma LC-MS/MS
Format: in vivo, beagle
Conditions: male, beagle, dog, plasma, iv, 0.5 mL/kg, single TRQI 0.5 mL/kg; beagle No 2; read-out: AUC0–24 h
This section presents molecules with their documented AUC(0-t) values.
Write the answer as a number in ng·h/mL, unit excluded.

Molecule	Units Symbol	Measured Result
O=C(O)[C@H]1O[C@@H](Oc2cc3oc(-c4ccccc4)cc(=O)c3c(O)c2O)[C@H](O)[C@@H](O)[C@@H]1O [Baicalin, baicalin]	ng·h/mL	18.7

Problem: # get_value(readout='AUC(0-t)', item= C[C@H](CCC(=O)O)[C@H]1CC[C@H]2[C@@H]3[C@@H](O)C[C@@H]4C[C@H](O)CC[C@]4(C)[C@H]3CC[C@]12C [Ursodeoxycholic acid, ursodeoxycholic acid] )
Result: 1100

Problem: Item C[C@H](CCC(=O)O)[C@H]1CC[C@H]2[C@@H]3[C@H](O)C[C@@H]4C[C@H](O)CC[C@]4(C)[C@H]3CC[C@]12C [Chenodeoxycholic acid, chenodeoxycholic acid] has what recorded AUC(0-t)?
Result: 108

Problem: What does the record list as AUC(0-t) for O=C(/C=C/c1ccc(O)c(O)c1)O[C@@H]1C[C@](O)(C(=O)O)C[C@@H](O)[C@H]1O [Chlorogenic acid, chlorogenic acid] ?
Result: 17.8
